Listing: Rank (after) of selected sequences
- study system: MyD88^TIR (Homo sapiens)
- Construct: MyD88 (residues 148–296); 6xHis; made in house; host or cells: E. coli BL21 (DE3)
- procedure details: T‐Surf phage library (P8 and P3) selection against MyD88^TIR, four rounds, NGS read counts
- Assay type: binding
- stated conditions: P3_MyD88: rank by count after grouping
// print number alone

LKEEHCHQALEKAGKL; 460

Looking for the measured Rank (after) of YYLDPSHLRKQRGEVD , can you help?
418

----------
Each item that follows carries a reported P3_MyD88 Rank (after).
- study system: MyD88^TIR (Homo sapiens)
- Construct: MyD88 (residues 148–296); 6xHis; made in house; host or cells: E. coli BL21 (DE3)
- procedure details: T‐Surf phage library (P8 and P3) selection against MyD88^TIR, four rounds, NGS read counts
- Format: binding
- stated conditions: P3 library, selection against MyD88, rank after grouping

YASSSWALDELLRILY; 502
DHHLDLPWGKAKKPEILG; 487
SSYRQGLWRLLELSKK; 485

Entry YTALTNSSFHTFRDNH has what P3_MyD88 Rank (after)?
514

Look up P3_MyD88 Rank (after) for this sequence: NQWRNALTAAANLRL
507

----------
- study system: MAL^TIR (Homo sapiens)
- Construct: MAL (residues 79–221); 6xHis; made in house; host or cells: E. coli BL21 (DE3)
- Sequence (P58753 79-221): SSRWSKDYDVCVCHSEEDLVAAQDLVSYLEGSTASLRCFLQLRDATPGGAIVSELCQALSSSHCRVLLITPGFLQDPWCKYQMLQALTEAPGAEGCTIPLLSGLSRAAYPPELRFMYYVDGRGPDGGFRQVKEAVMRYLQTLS
- procedure details: T‐Surf phage library (P8 and P3) selection against MAL^TIR, four rounds, NGS read counts
- Format: binding
- stated conditions: P8 library, 4R selection against MAL, rank before grouping
experimental endpoint: P8_MAL Rank (before)

# count of solved cases: 3
AFFWAQLKSVLGNPAR; 1630
TFLGQTYNAQAPAEIP; 2613
AFRYTFLIILTDPTNF; 1916

Lookup: P8_MAL Rank (before) / MAL^TIR (Homo sapiens) / YFLHFRLLSRPETEYI
1505

State its P8_MAL Rank (before) on MAL^TIR (Homo sapiens): LFFGASLKQLLRSDGR
2134

# query: P8_MAL Rank (before) | item LFFGKALNSCCVAIA | system: MAL^TIR (Homo sapiens)
2136

Query the reported P8_MAL Rank (before) for MAL^TIR (Homo sapiens); item: ALLYTFLIHLTHPTNS
1929

Which measured P8_MAL Rank (before) belongs to DFLNWFIALKSTVLET , tested on MAL^TIR (Homo sapiens)?
1976

----------
- study system: MyD88^TIR (Homo sapiens, UniProt Q99836)
- Construct: MyD88 (residues 148–296); 6xHis; made in house; host or cells: E. coli BL21 (DE3)
- Sequence (Q99836 148-296): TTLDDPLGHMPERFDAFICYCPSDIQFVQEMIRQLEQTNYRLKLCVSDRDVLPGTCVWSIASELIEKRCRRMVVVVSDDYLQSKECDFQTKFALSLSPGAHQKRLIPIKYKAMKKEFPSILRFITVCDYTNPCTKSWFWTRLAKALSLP
- procedure details: T‐Surf phage library (P8 and P3) selection against MyD88^TIR, four rounds, NGS read counts
- Assay type: binding
- stated conditions: P8_MyD88: rank by count before grouping
Rule: Rank (before) below 1000 gives true (1), anything at or above gives false (0).

The following sequences have reported results that may help.
WALQELLEILKANREL; true (1)
SSAWALNELVQIMKAW; false (0)
EWVWDYLLPNLESPAG; false (0)

Given the entry NFANSSWALDELWLIL , would its reported Rank (before) be below 1000?
true (1)

Decide: Rank (before) of FFSGFRELEDFISKLW strictly below 1000?
true (1)

is_below(Rank (before), 1000) for TEPADTAFWDALWNKL ?
true (1)

Determine if YASYDDNDYYWVTHVLLRPM shows Rank (before) strictly lower than 1000.
true (1)

Dear colleague, could you confirm whether Rank (before) of PQDLGWFYERLISQILK falls below 1000? Thanks.
false (0)

Consider the sequence LGYRWLDGEYFGGIED . Is its Rank (before) strictly less than 1000?
false (0)

# strict comparison: is reported Rank (before) < 1000? input = DPQDLDWFYERLLSLS
false (0)

Take the sequence QDLEQFYERLISRILQ and say whether its Rank (before) is less than 1000.
true (1)

Report whether reported Rank (before) is lower than 1000 (strictly) for DYTSSPWALEELLKIM
true (1)

----------
- study system: MAL^TIR (Homo sapiens)
- Construct: MAL (residues 79–221); 6xHis; made in house; host or cells: E. coli BL21 (DE3)
- procedure details: T‐Surf phage library (P8 and P3) selection against MAL^TIR, four rounds, NGS read counts
- Assay type: binding
- stated conditions: P3 library, selection against MAL, rank after grouping
experimental endpoint: P3_MAL Rank (after)

RGFLSHLRHYLQAKAH; 552

Record request: P3_MAL Rank (after) value, item PNLRNKVLNYLLRTKT
574

So what's the measured P3_MAL Rank (after) for this one? RLLKWKEALKQRAL
518

Would you mind telling me what P3_MAL Rank (after) value was observed for VLQNFISHPYDFLARK ?
570

Can you share its P3_MAL Rank (after)? I mean this sequence: FMSHLYRYLVQRGV
546

----------
- study system: MyD88^TIR (Homo sapiens)
- Construct: MyD88 (residues 148–296); 6xHis; made in house; host or cells: E. coli BL21 (DE3)
- procedure details: T‐Surf phage library (P8 and P3) selection against MyD88^TIR, four rounds, NGS read counts
- Assay type: binding
- stated conditions: P8 library, selection against MyD88 TIR; rank by count before grouping
We begin with a simple list: items and their reported P8_MyD88 Rank (before).
Just the number, please, no unit attached.

Answered examples (4):
LAIIGLIGSILWALK; 492
WKEALTYVSLLVGFPF; 380
DPQDLEWFYERLFSLI; 1112
DPQDLQWFCERLVSLF; 2908

Recorded P8_MyD88 Rank (before) for PYLLWVFDDEDGQELF , please?
291

Query (sequence): DPQDLALFYERLVSLF ; field requested: P8_MyD88 Rank (before)
2727

Consider the sequence DPQDLDWLYERLVRLF and give its measured P8_MyD88 Rank (before).
2828

Return reported P8_MyD88 Rank (before); argument: PRDLEWLYERLVSLIL
3410

Which P8_MyD88 Rank (before) value belongs to WALNELVEIYQAYKEL ?
521

Look at this sequence and give its reported P8_MyD88 Rank (before). DPQDLEWFYERLVSRF
2851

Which P8_MyD88 Rank (before) value is on record for YSFLSHLAAAFELHGI ?
543

Please look up its P8_MyD88 Rank (before): YELDFSHFWLFDGHATGEA
1938

----------
- study system: MyD88^TIR (Homo sapiens, UniProt Q99836)
- Construct: MyD88 (residues 148–296); 6xHis; made in house; host or cells: E. coli BL21 (DE3)
- procedure details: T‐Surf phage library (P8 and P3) selection against MyD88^TIR, four rounds, NGS read counts
- Assay type: binding
- stated conditions: P8 library, selection against MyD88, rank before grouping
experimental endpoint: P8_MyD88 Rank (before)

NYGSNSWALNKLLEIL; 3834
DPLALEWYYERPFSQM; 2612
NYASSSWALNELLEILK; 3849
NYAASEWALRELIQIM; 3837

I am curious: what P8_MyD88 Rank (before) value has been reported for LGYHGIDWVYFGGIED ?
3316

----------
- study system: MyD88^TIR (Homo sapiens)
- Construct: MyD88 (residues 148–296); 6xHis; made in house; host or cells: E. coli BL21 (DE3)
- procedure details: T‐Surf phage library (P8 and P3) selection against MyD88^TIR, four rounds, NGS read counts
- Format: binding
- stated conditions: P3_MyD88: rank by count after grouping
# cutoff 400 applies to Rank (after); >= gives satisfied, < gives not satisfied

Record excerpt, results attached:
SNFREGLWRQQELSKK; satisfied
LKGGDPYFWSKLRYTM; not satisfied
ESILNHMRRSSQSIAN; satisfied
SSFREGLWRLPELLR; not satisfied
LKVDSWRQALEKAGNL; not satisfied

In plain terms: is recorded Rank (after) at least 400 for LSRVPSVHDFRGFATI ?
not satisfied

Check the entry EWIREQLRPALDELVL : does Rank (after) equal or exceed 400?
not satisfied

Is reported Rank (after) greater than or equal to 400 here: DSHESEIIKEIVDTIV
not satisfied

Please check the record SELSVVDDGSVSPLGM and state if its Rank (after) is at or above 400.
satisfied

Determine whether measured Rank (after) meets or exceeds 400 for YLKWGYPWFWSKLRYAM
not satisfied

Test whether the sequence SSFRDGLWRLLELSKT records Rank (after) of 400 or higher.
not satisfied

Kindly determine if Rank (after) recorded for SENYATSPWALEKAGKL is above or exactly 400.
satisfied

Rank (after) >= 400 for SSFLQKLRRRLELSIV ?
satisfied

Decide: is the reported value of Rank (after) for DHHLICRVAKRLNRKFW equal to or greater than 400?
not satisfied

Textbook exercise: given the entry DHHLDLPRGKAIKPEIL , state whether its Rank (after) is greater than or equal to 400.
not satisfied

Reported Rank (after) reaches at least 400 for LKWAIRIFGANCVMR ?
not satisfied

Reported Rank (after) at or above 400? EWIREQLRPALEKAGKL
not satisfied

State whether the measured Rank (after) reaches 400, counting equality as reaching it, for LKWGEPYFCSKLRYAM
satisfied

Decide: Rank (after) of DHHLDLPRGKAINRKFW >= 400?
not satisfied
